Below, IC50 values reported for Histone deacetylase 2 (Homo sapiens) across several publications.
Sorting guide: entries reporting IC50 beneath 600 nM go in the class 1 pile, the rest go in the class 0 pile.

1) CCCNNC(=O)c1ccc(CN(Cc2ccccc2)C(=O)OC(C)(C)C)cc1 = class 1
2) Nc1ccccc1NC(=O)CCCCCNC(=O)c1ccc(NC(=O)Nc2ccc(-c3nc(OC4COC4)nc(N4CCOCC4)n3)cc2)cc1 = class 1
3) Cc1ccc(-c2cc(C(F)(F)F)nn2-c2ccc(S(=O)(=O)NCCCCCCC(=O)NO)cc2)cc1 = class 0
4) CCCCCN(CCC)NC(=O)/C=C/c1ccc(CNCCc2c(C)[nH]c3ccccc23)cc1 = class 0
5) CCC(=O)CCCCC[C@H](NC(=O)Cc1c(C)[nH]c2ccc(OC)cc12)c1ncc(-c2ccccc2)[nH]1 = class 1
6) O=C1NCCC[C@H]1C(=O)N[C@@H](CCCCCS)C(=O)Nc1ccccc1 = class 1
7) O=C(CCCCOCc1cc(-c2ccccc2)on1)NO = class 1
8) Cc1ccc(C(=O)c2ccc3c(ccn3Cc3ccc(C(=O)NO)cc3)c2)cc1 = class 0
9) Nc1ccccc1NC(=O)/C=C/c1ccc(CNC2CC2c2ccccc2)cc1 (stereo not given) = class 1
10) COc1ccc(C(=O)Nc2ccccc2N)cc1 = class 0
